Recorded values, source ChEMBL document CHEMBL1132825.

- System Under Test: Glutamate NMDA receptor
- Measurement Protocol: Displacement of [3H]-SPD from N-methyl-D-aspartate glutamate receptor
- Assay type: protein-complex assay, Rattus norvegicus
pIC50: −log10 of the molar value.
Measured Metric: pIC50

In the examples that follow, each entry is paired with its recorded pIC50.
[[record]]
smiles_text = "Nc1ccc2c(c1N)C(=O)c1ccccc1C2=O"
value_observed = 3.22

[[record]]
smiles_text = "Nc1cccc2c1C(=O)c1cccc(N)c1C2=O"
value_observed = 3.47

[[record]]
smiles_text = "Nc1cccc2c1C(=O)c1c(N)ccc(N)c1C2=O"
value_observed = 3.74

[[record]]
smiles_text = "Nc1ccc2c(c1)C(=O)c1ccccc1C2=O"
value_observed = 3.94

[[record]]
smiles_text = "Nc1ccc(O)c2c1C(=O)c1ccccc1C2=O"
value_observed = 3.75


1 = Nc1cccc2c1C(=O)c1ccccc1C2=O
2 = Nc1ccc(N)c2c1C(=O)c1ccccc1C2=O
Hey, which is lower on measured pIC50, 1 or 2 ? Record your answer as the label of the chosen record.
2

###

- System Under Test: Glutamate NMDA receptor
- Measurement Protocol: Displacement of [3H]MK-801 from N-methyl-D-aspartate glutamate receptor
- Assay type: protein-complex assay, Rattus norvegicus
pIC50: −log10 of the molar value.
Measured Metric: pIC50

[[record]]
smiles_text = "Nc1cccc2c1C(=O)c1ccccc1C2=O"
system_under_test = "Glutamate NMDA receptor"
measured_metric = "pIC50"
value_observed = 3.85

[[record]]
smiles_text = "Nc1ccc(N)c2c1C(=O)c1ccccc1C2=O"
system_under_test = "Glutamate NMDA receptor"
measured_metric = "pIC50"
value_observed = 3.25

[[record]]
smiles_text = "Nc1cccc2c1C(=O)c1cccc(N)c1C2=O"
system_under_test = "Glutamate NMDA receptor"
measured_metric = "pIC50"
value_observed = 3.49

[[record]]
smiles_text = "Nc1cccc2c1C(=O)c1c(N)ccc(N)c1C2=O"
system_under_test = "Glutamate NMDA receptor"
measured_metric = "pIC50"
value_observed = 3.63

[[record]]
smiles_text = "Nc1ccc(O)c2c1C(=O)c1ccccc1C2=O"
system_under_test = "Glutamate NMDA receptor"
measured_metric = "pIC50"
value_observed = 3.80


P = Nc1ccc2c(c1)C(=O)c1ccccc1C2=O
Q = Nc1ccc2c(c1N)C(=O)c1ccccc1C2=O
Hey, which is lower on measured pIC50, P or Q ? Record your answer as the label of the chosen record.
Q
